# tested-target: P450RAI-1 (Homo sapiens)
# Sequence (O43174 whole entry): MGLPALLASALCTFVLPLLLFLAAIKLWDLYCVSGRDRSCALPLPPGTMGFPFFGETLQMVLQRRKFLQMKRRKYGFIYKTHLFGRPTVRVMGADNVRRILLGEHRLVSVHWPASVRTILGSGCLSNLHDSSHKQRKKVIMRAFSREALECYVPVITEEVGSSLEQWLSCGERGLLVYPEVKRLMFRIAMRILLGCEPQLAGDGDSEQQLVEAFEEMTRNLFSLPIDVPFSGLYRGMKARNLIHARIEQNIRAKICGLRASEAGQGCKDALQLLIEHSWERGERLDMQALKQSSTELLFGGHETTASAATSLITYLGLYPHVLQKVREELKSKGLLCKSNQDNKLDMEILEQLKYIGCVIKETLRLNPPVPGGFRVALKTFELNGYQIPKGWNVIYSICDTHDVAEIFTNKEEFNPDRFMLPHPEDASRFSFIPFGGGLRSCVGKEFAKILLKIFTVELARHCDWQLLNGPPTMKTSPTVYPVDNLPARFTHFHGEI
# method-description: Competitive inhibition of all-trans-RA metabolism in COS-1 cells transfected with pcDNA3.1-P450RAI-1
# assay-conditions: 2 nM [3H]all-trans-RA, 3 hours, aqueous soluble radioactivity, read-out: Interpolated ID50, P450RAI-1
pIC50: −log10 of the molar value.
observable: pIC50

What does the data say about its pIC50? Entry: CC1=C(/C=C/C(C)=C/C=C/C(C)=C/CO)C(C)(C)CCC1 < 4.00

###

# tested-target: P450RAI-2 (Homo sapiens)
# Sequence (Q9NR63 whole entry): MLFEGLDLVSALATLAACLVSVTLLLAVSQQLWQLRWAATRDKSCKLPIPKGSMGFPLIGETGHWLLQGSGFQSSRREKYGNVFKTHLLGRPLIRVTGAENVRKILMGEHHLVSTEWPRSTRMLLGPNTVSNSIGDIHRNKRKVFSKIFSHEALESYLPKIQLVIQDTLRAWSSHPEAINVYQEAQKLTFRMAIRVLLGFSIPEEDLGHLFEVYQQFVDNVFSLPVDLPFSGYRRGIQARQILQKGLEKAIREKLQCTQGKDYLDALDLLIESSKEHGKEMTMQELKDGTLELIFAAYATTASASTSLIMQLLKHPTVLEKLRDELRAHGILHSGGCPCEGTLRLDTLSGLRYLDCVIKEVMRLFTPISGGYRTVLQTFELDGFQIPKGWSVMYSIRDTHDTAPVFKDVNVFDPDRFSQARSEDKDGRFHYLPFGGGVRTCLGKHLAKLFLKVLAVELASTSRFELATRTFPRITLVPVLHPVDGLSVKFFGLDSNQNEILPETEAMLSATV
# method-description: Competitive inhibition of all-trans-RA metabolism in COS-1 cells transfected with pcDNA3.1-P450RAI-2
# assay-conditions: read-out: Interpolated ID50, P450RAI-2
observable: IC50

Form field: IC50 recorded for CC1=C(/C=C/C(C)=C/C=C/C(C)=C/CO)C(C)(C)CCC1 with P450RAI-2 (Homo sapiens) (enter value) > 100 µM
